# Test system: OVCAR-3 ovarian
# testSummary: NCI tumour cell line growth inhibition, 48 h
Provide the reported GI50 of each item.

## Input Consider the molecule C[C@]12CC[C@@H]3c4cc(O)c(O)cc4CC[C@H]3[C@@H]1CC[C@@H]2O and give its measured GI50.
## Output 2.77 µM

## Input Consider the molecule O=C(/C(=C/c1ccc([N+](=O)[O-])cc1)SCc1ccc(Cl)cc1)c1ccc(F)cc1 and give its measured GI50.
## Output 2.2 µM

## Input Consider the molecule O=C1NC2C(=CC(O)C(O)C2O)c2cc3c(cc21)OCO3 (centres undefined) and give its measured GI50.
## Output 0.441 µM

## Input Consider the molecule COc1cc2c(cc1Cc1cccc(Cl)c1F)c(=O)c(C(=O)O)cn2[C@@H](CO)C(C)C and give its measured GI50.
## Output 3.32 µM

## Input Consider the molecule C#CCN(Cc1nc2cc(C(F)(F)F)ccc2nc1-c1ccccc1)c1ccc(C)cc1 and give its measured GI50.
## Output 3.7 µM

## Input Consider the molecule CCCCCCCCCCCCSC1=C(Cl)C(=O)C(OC)=C(OC)C1=O and give its measured GI50.
## Output 1.39 µM

## Input Consider the molecule S=C(NCCNC(=S)[S][Sn]([c]1ccccc1)([c]1ccccc1)[c]1ccccc1)[S][Sn]([c]1ccccc1)([c]1ccccc1)[c]1ccccc1 and give its measured GI50.
## Output 0.0145 µM

## Input Consider the molecule CN(C)CCCCC(C(=O)CBr)(c1ccccc1)c1ccccc1 and give its measured GI50.
## Output 1.37 µM

## Input Consider the molecule N#Cc1c(N)n2c(nc1=Nc1ccc(Cl)cc1)sc1cc(Cl)ccc12 and give its measured GI50.
## Output 6.11 µM

## Input Consider the molecule Cc1ccc2c(c1)c(Sc1ccc(C(=O)NO)cc1)c1n2CN(C)CC1 and give its measured GI50.
## Output 1.93 µM

## Input Consider the molecule C[C@@H](NC(=O)/C(C#N)=C/c1ccc([N+](=O)[O-])cc1)c1ccccc1 and give its measured GI50.
## Output 2.39 µM

## Input Consider the molecule CCOC(=O)Nc1nc2ccc(Br)cc2s1 and give its measured GI50.
## Output > 50 µM

## Input Consider the molecule CC[C@@H](C(=O)[C@H](C)[C@H](O)[C@@H](C)[C@H]1O[C@H]([C@@H](CC)C(=O)N(CC)CC)CC[C@H]1C)C1O[C@]2(C=C[C@@H](O)[C@]3(CC[C@@](C)([C@H]4CC[C@](O)(CC)[C@H](C)O4)O3)O2)[C@H](C)C[C@@H]1C (some centres undefined) and give its measured GI50.
## Output 2.64 µM

## Input Consider the molecule COCCNc1ccc2c3c(cccc13)C(=O)N(CCN(C)C)C2=O and give its measured GI50.
## Output 8.65 µM

###

Provide the reported TGI of each item.
# Test system: SW-620 colon
# testSummary: NCI tumour cell line growth inhibition, 48 h

## Input Consider the compound CC(C)(C)[Si](C)(C)OC1[C@@H](O[Si](C)(C)C(C)(C)C)[C@@H](CNC(=O)NC(=O)CF)O[C@H]1n1cnc2c(NC(=O)Nc3ccccc3)ncnc21 (some centres undefined) and give its measured TGI.
## Output > 50 µM

## Input Consider the compound N=N/C(=C\c1c(O)[nH]c2ccccc12)c1ccccc1 and give its measured TGI.
## Output > 100 µM

## Input Consider the compound Cc1c2c(OCC(O)CN3CCN(c4ccccc4)CC3)nn(C)c(=O)c2c(C)n1-c1ccccc1 (centres undefined) and give its measured TGI.
## Output 98.8 µM

## Input Consider the compound COc1ccc(Cc2c(=O)[nH]nc3ccccc23)cc1 and give its measured TGI.
## Output > 100 µM

## Input Consider the compound CCN(CC)C1CCC(C2c3cc4c(cc3OC(N3CCOCC3)C2C)OCO4)CC1 (centres undefined) and give its measured TGI.
## Output > 100 µM

## Input Consider the compound COC(=O)C1=C(OC(=O)/C(=C/c2ccccc2)c2ccc(Cl)cc2)C(C(=O)OC)[C@@]2(O)[C@@H](C(=O)OC)[C@H](C)C[C@@H]1[C@@H]2C(=O)OC (some centres undefined) and give its measured TGI.
## Output > 100 µM

## Input Consider the compound COc1cc(C(=O)N2CCN(c3ccccc3)CC2)c2ccccc2n1 and give its measured TGI.
## Output > 100 µM

## Input Consider the compound COc1cc2c(cc1Cc1cccc(Cl)c1F)c(=O)c(C(=O)O)cn2[C@@H](CO)C(C)C and give its measured TGI.
## Output 15 µM

## Input Consider the compound N#Cc1c(N)n2c(nc1=Nc1ccc(Cl)cc1)sc1cc(Cl)ccc12 and give its measured TGI.
## Output > 100 µM

## Input Consider the compound CC1(C)CC(=O)C2=C(C1)NC1=C(C2)C(=O)CC(C)(C)C1 and give its measured TGI.
## Output > 100 µM

## Input Consider the compound O=C(O)c1cc(=O)c2c(OCC(O)COc3cccc4oc(C(=O)O)cc(=O)c34)cccc2o1 and give its measured TGI.
## Output > 100 µM

## Input Consider the compound O=C(c1ccccc1)C(c1ccccc1)C1(O)C(=O)Nc2ccc([N+](=O)[O-])cc21 (centres undefined) and give its measured TGI.
## Output > 100 µM

## Input Consider the compound C/C(CC(=O)Nc1cc(C)ccc1C)=N/N=C(N)N and give its measured TGI.
## Output > 100 µM

## Input Consider the compound COc1ccc2cc(C(=O)/C=C/c3ccc(N(C)C)cc3)ccc2c1 and give its measured TGI.
## Output > 100 µM

## Input Consider the compound COc1ccc(Nc2cc(C)nc(NCc3ccccc3)n2)cc1 and give its measured TGI.
## Output 20 µM

## Input Consider the compound COc1cccc(/C=N/NC(=O)c2ccccc2N2CCCC2)c1O and give its measured TGI.
## Output > 100 µM

## Input Consider the compound O=C(NC(=O)c1ccccc1[N+](=O)[O-])Nc1ccc(Oc2ncc(Cl)cn2)c([N+](=O)[O-])c1 and give its measured TGI.
## Output > 100 µM

## Input Consider the compound CCCCCCCCC/C(=N\NC(=O)c1ccncc1)c1ccc(O)c(O)c1O and give its measured TGI.
## Output 28.3 µM

## Input Consider the compound CC(C)C(=O)CC(c1ccc(Cl)cc1)N1N=C(C(C)C)CC1c1ccc(Cl)cc1 (centres undefined) and give its measured TGI.
## Output > 100 µM

## Input Consider the compound COC(=O)c1ccccc1CC(Cc1ccc2c(c1)CCC2)C(=O)OC (centres undefined) and give its measured TGI.
## Output > 100 µM

## Input Consider the compound N#Cc1c(N2CCOCC2)nc(=S)[nH]c1-c1ccccc1 and give its measured TGI.
## Output > 100 µM

## Input Consider the compound CCSc1cc2c(cc1O)CC[C@@H]1[C@@H]2CC[C@]2(C)[C@@H](O)CC[C@@H]12 and give its measured TGI.
## Output 13.2 µM

## Input Consider the compound CCc1nc(N)nc(N)c1-c1ccc2nnn(O)c2c1 and give its measured TGI.
## Output > 100 µM

## Input Consider the compound COCCNc1ccc2c3c(cccc13)C(=O)N(CCN(C)C)C2=O and give its measured TGI.
## Output > 25 µM

## Input Consider the compound CNC(=O)NCCN1CC2CCC(CC2)C1 and give its measured TGI.
## Output > 10 µM

## Input Consider the compound COc1cc2oc(-c3ccc4c(c3)OCO4)c(OC)c(=O)c2c(OC)c1O and give its measured TGI.
## Output > 100 µM

## Input Consider the compound CC(C)CC(=O)NC(C(=O)NC(C(=O)NC(CC(C)C)C(O)CC(=O)NC(C)C(=O)NC(CC(C)C)C(O)CC(=O)O)C(C)C)C(C)C (centres undefined) and give its measured TGI.
## Output > 100 µM

## Input Consider the compound CN(C)CCCCC(C(=O)CBr)(c1ccccc1)c1ccccc1 and give its measured TGI.
## Output 5.58 µM

## Input Consider the compound C=C1C(=O)O[C@H]2[C@H]1CC/C(C=Nc1c(N)cc(C(F)(F)F)cc1C(F)(F)F)=C\CC[C@@]1(C)O[C@@H]21 and give its measured TGI.
## Output 2.95 µM

## Input Consider the compound Cc1cc(C)n(-c2ccnc3cc(Cl)ccc23)n1 and give its measured TGI.
## Output > 100 µM

## Input Consider the compound NC(=O)c1cccc(N=c2oc3ccc(Br)cc3cc2-c2nc3ccccc3[nH]2)c1 and give its measured TGI.
## Output 47.7 µM

## Input Consider the compound Nc1nc(N)c(-c2ccccc2)c(C(=O)Nc2ccccc2)n1 and give its measured TGI.
## Output > 100 µM

## Input Consider the compound CCCCCCCCCCCCSC1=C(Cl)C(=O)C(OC)=C(OC)C1=O and give its measured TGI.
## Output 17.5 µM

## Input Consider the compound COC(=O)c1ccccc1N1C(=O)Cc2ccccc2C1=O and give its measured TGI.
## Output > 100 µM

## Input Consider the compound C(=N\Nc1ccccc1)/c1nc2ccccc2nc1/C=N/Nc1ccccc1 and give its measured TGI.
## Output 30.7 µM

## Input Consider the compound COc1ccc(-c2c3c(n(C4OC(COC(C)=O)C(OC(C)=O)C(OC(C)=O)C4OC(C)=O)c(=S)c2C#N)CCC3)cc1 (centres undefined) and give its measured TGI.
## Output > 100 µM

## Input Consider the compound O=c1c2ccccc2nc2n1-c1ccccc1SC2 and give its measured TGI.
## Output > 100 µM

## Input Consider the compound O=C(O)COc1ccc(C(=O)/C(SS/C(C(=O)c2ccc(OCC(=O)O)c(Cl)c2Cl)=C2\C=C(c3ccc(Cl)cc3)SS2)=C2/C=C(c3ccc(Cl)cc3)SS2)c(Cl)c1Cl and give its measured TGI.
## Output 11.5 µM

## Input Consider the compound O=C(Nc1ccc(-n2cc(-c3ccncc3)c(-c3ccc(O)c(Cl)c3)n2)cc1)Nc1ccc(Cl)c(C(F)(F)F)c1 and give its measured TGI.
## Output 20 µM
